Target: Voltage-dependent calcium channel alpha2delta subunit (Sus scrofa)
Sequence (O77773 whole entry): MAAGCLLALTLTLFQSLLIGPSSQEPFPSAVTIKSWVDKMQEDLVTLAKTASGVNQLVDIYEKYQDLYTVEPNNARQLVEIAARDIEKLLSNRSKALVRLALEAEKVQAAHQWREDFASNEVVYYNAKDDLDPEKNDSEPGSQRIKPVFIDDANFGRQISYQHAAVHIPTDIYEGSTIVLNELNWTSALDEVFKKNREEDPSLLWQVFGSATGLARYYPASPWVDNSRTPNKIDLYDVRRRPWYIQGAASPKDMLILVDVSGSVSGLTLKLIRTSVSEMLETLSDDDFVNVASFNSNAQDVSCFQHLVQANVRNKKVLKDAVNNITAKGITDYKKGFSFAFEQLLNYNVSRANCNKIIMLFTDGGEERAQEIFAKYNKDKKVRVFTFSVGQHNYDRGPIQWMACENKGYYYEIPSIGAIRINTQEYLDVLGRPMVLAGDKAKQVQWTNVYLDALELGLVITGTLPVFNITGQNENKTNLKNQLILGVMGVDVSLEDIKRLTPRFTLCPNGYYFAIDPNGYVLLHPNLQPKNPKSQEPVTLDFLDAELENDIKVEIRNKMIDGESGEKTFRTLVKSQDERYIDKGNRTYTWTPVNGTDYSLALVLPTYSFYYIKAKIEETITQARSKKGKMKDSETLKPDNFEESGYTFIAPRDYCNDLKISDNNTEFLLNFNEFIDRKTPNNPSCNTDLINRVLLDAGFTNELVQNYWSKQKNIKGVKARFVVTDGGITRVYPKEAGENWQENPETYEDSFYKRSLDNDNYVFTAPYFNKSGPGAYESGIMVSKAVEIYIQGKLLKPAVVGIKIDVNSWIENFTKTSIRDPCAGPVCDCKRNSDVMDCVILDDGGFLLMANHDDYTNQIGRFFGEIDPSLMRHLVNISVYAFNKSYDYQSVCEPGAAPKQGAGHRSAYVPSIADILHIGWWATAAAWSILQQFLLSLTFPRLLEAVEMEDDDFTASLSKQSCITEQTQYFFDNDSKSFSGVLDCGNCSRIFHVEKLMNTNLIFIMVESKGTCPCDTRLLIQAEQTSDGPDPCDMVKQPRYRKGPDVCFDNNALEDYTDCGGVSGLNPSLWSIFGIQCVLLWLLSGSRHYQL
Assay: Displacement of [3H]gabapentin from calcium channel alpha2delta in pig cerebral cortex membrane after 30 mins
Note to self: use 1 only for IC50 readings below 300 nM; a reading exactly at 300 nM still gets -1.

Worked set:
| compound | assigned category |
| --- | --- |
| NC[C@]1(CC(=O)O)C[C@H]2CCC[C@H]2C1 | -1 |
| NCC1(CC(=O)O)CC2CCCC2C1 (racemic) | -1 |
| NC[C@]1(CC(=O)O)C[C@H]2CC[C@H]2C1 | 1 |
| C[C@@H]1C[C@@](CN)(CC(=O)O)C[C@@H]1C | 1 |
| NC[C@]1(CC(=O)O)CC2CCCC21 (mixture of isomers) | 1 |

Data request: Is it true that IC50 reported for NCC1(CC(=O)O)CC2CCC2C1 (racemic) is less than 300 nM?
Data returned: -1

Data request: In plain terms, does NC[C@]1(CC(=O)O)C[C@H]2CCCC[C@H]2C1 come in under 300 nM for IC50?
Data returned: -1

Data request: State whether 300 nM exceeds IC50 recorded for NC[C@@]1(CC(=O)O)C[C@H]2CCC[C@H]2C1 .
Data returned: -1

Data request: In plain terms, does NC[C@@]1(CC(=O)O)CC2CCCCC21 (mixture of isomers) come in under 300 nM for IC50?
Data returned: -1

Data request: A record lists NCC1(CC(=O)O)CC2CCCCC2C1 (racemic) . Is its IC50 below 300 nM?
Data returned: -1

Data request: A record lists NC[C@@]1(CC(=O)O)C[C@H]2CCCC[C@H]2C1 . Is its IC50 below 300 nM?
Data returned: -1

Data request: State whether 300 nM exceeds IC50 recorded for NC[C@@]1(CC(=O)O)C[C@H]2CC[C@H]2C1 .
Data returned: -1

Data request: In plain terms, does NC[C@]1(CC(=O)O)CC2CCCCC21 (mixture of isomers) come in under 300 nM for IC50?
Data returned: -1
